Data provenance is ChEMBL document CHEMBL1139386.

Target: UniProtKB P21554
Assay: Binding affinity to CB1 receptor
VALUE_KIND: Ki (µM)
Answers are plain numbers, in µM.

For every record below, what is its Ki?
1. CCCCCCC(C)(C)c1cc(OC)c([C@H]2C=C(CO)[C@@H]3C[C@H]2C3(C)C)c(OC)c1
2. CCCCCn1cc(C(=O)c2cc3ccccc3cc2OC)c2ccccc21
3. CCCC(C)(C)c1ccc2c(c1)OC(C)(C)[C@@H]1CC=C(C)C[C@@H]21
4. CN1CCCC[C@@H]1Cn1cc(C(=O)c2cc([N+](=O)[O-])ccc2I)c2ccccc21

Found:
1: 10; 2: 0.381; 3: 0.677; 4: 5

----------
Assay: Selectivity ratio of Ki for CB1 receptor to Ki for CB2 receptor
VALUE_KIND: Ratio Ki
Give bare numbers.

Hey, quick one: what's Ratio Ki for each of these?
1. COc1ccc2c(c1)c(CCN1CCOCC1)c(C)n2C(=O)c1cccc(Cl)c1Cl
2. CN1CCCC[C@@H]1Cn1cc(C(=O)c2cc([N+](=O)[O-])ccc2I)c2ccccc21

Found:
1. 160
2. 331

// each molecule listed below needs its Ratio Ki
1. CCCC(C)(C)c1ccc2c(c1)OC(C)(C)[C@@H]1CC=C(C)C[C@@H]21
2. CCCCCn1cc(C(=O)c2cc3ccccc3cc2OC)c2ccccc21

Found:
1: 199; 2: 53

----------
Species on record: Homo sapiens
Assay: Selectivity ratio of Ki for human CB1 receptor to Ki for human CB2 receptor
Decide using Ratio Ki: a value greater than or equal to 80 is Y, a smaller one is N.

CCCn1cc(C(=O)c2ccc(C)c3ccccc23)c2ccccc21 = Y
CCCCCCC(C)(C)c1cc(O)c2c(c1)oc(=O)c1ccc(O)cc12 = Y
CCCC(C)(C)c1ccc2c(c1)OC(C)(C)[C@@H]1CC=C(C)C[C@@H]21 = N
CCCCCn1c(C)c(C(=O)c2c(OC)ccc3ccccc23)c2ccccc21 = N
CC(=O)n1c2c(c3cc(C(=O)N4CCC(C)CC4)ccc31)CN(C1CCCC1)C2 = N

Lookup: Confirm if Ratio Ki reported for the compound O=C(NCC1CCOCC1)c1cnc(Nc2ccc(Cl)cc2Cl)nc1C(F)(F)F [GW842166X] is 80 or above.
Found: Y

Lookup: Confirm if Ratio Ki reported for the compound `CCCN1Cc2c(n(S(=O)(=O)CC)c3ccc(C(=O)N4CCC(C)CC4)cc23)C1` is 80 or above.
Found: N

Lookup: Check this compound for Ratio Ki at or above 80: `COc1ccc2c(c1)c(CC(=O)N1CCOCC1)c(C)n2C(=O)c1cccc(Cl)c1Cl`
Found: Y

----------
Kindly state pKi for each of the entries shown.
Molecular target: Cannabinoid receptor 2 (Homo sapiens, UniProt P34972)
Sequence (P34972 whole entry): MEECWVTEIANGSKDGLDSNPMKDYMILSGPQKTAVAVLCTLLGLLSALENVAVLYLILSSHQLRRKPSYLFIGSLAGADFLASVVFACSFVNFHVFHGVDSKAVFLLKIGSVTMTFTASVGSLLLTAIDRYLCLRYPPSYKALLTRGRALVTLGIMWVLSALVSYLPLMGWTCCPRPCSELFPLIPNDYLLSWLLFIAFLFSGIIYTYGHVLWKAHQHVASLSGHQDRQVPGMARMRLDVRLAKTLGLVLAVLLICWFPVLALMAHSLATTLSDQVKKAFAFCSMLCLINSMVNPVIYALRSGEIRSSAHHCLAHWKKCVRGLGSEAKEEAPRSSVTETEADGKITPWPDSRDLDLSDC
Test: Displacement of [3H]CP-55940 from human recombinant CB2 receptor
Numbers only, as −log10 of the molar value.

See these solved cases before continuing.
CCCCCCc1cc(O)c2c(c1)OC(C)(C)C1=C2CCN(C)C1 = 8.75
CCc1ccccc1NC(=O)CSc1nnc(-c2ccccc2OC)n1-c1ccccc1 = 8.68
CCCCCCC(C)(C)c1cc(OC)c([C@@]2(O)CCC[C@@H](C)C2)c(OC)c1 = 7.64

Answer for every listed entry: what is its pKi? The entries follow.
1. CCCCCCC(C)(C)c1cc(OC)c(C2(O)CCOCC2)c(OC)c1
2. CCCC(C)(C)c1ccc2c(c1)OC(C)(C)[C@@H]1CC=C(C)C[C@@H]21
3. CCCCCCC(C)(C)c1cc(O)c2c(c1)oc(=O)c1ccc(O)cc12
4. COc1ccc(OC)c(N(CC(=O)NCc2ccncc2)S(=O)(=O)c2ccc(C)cc2)c1

Found:
1: 6.47; 2: 10.64; 3: 9.09; 4: 8.87

----------
Kindly state pKi for each of the entries shown.
Biological target: Cannabinoid receptor 2 (Homo sapiens)
Experiment: Binding affinity to CB2 receptor
One number for each entry, as −log10 of the molar value.

Study these solved cases before continuing.
CN1CCCC[C@@H]1Cn1cc(C(=O)c2cc([N+](=O)[O-])ccc2I)c2ccccc21 = 7.82
CCCC(C)(C)c1ccc2c(c1)OC(C)(C)[C@@H]1CC=C(C)C[C@@H]21 = 8.47

Switching to the query record.
pKi measured on `CCCCCn1cc(C(=O)c2cc3ccccc3cc2OC)c2ccccc21` = 8.14

----------
Molecular target: UniProtKB P21554
Experiment: Displacement of [3H]CP-55940 from human recombinant CB1 receptor
VALUE_KIND: EC50

Simply: O=C(NCC1CCOCC1)c1cnc(Nc2ccc(Cl)cc2Cl)nc1C(F)(F)F [GW842166X] , UniProtKB P21554, EC50 = > 30 µM

----------
Molecular target: Cannabinoid receptor 1 (Homo sapiens, UniProt P21554)
Sequence (P21554 whole entry): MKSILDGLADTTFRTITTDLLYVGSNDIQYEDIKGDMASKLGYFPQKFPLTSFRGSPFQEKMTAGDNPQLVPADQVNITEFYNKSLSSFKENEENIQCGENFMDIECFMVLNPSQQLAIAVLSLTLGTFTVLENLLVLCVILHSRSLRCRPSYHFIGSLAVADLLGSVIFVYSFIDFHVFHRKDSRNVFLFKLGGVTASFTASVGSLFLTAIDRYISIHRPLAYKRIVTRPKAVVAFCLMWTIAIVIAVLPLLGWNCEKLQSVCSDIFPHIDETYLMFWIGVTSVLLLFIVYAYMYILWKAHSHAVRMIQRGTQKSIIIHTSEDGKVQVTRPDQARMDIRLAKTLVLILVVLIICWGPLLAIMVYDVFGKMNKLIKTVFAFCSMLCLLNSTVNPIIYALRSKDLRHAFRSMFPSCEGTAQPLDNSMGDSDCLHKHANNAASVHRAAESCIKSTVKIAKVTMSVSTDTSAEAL
Assay: Displacement of [3H]CP-55940 from human recombinant CB1 receptor
Would you mind telling me the reported Ki of each entry?

CCCCCCC(C)(C)c1cc(OC)c([C@@]2(O)CCC[C@@H](C)C2)c(OC)c1 = 5060 nM
CCc1ccccc1NC(=O)CSc1nnc(-c2ccccc2OC)n1-c1ccccc1 = > 50 nM
COc1ccc(OC)c(N(CC(=O)NCc2ccncc2)S(=O)(=O)c2ccc(C)cc2)c1 = > 50 nM

For every item in the list below, what is its measured Ki?
1. CCCCCN(CCCCC)C(=O)c1ccccc1C(=O)Nc1ccc(Br)cc1
2. CCCCSc1nc2c(c(=O)n1CCc1ccccc1)C1(CCCC1)Cc1ccccc1-2
3. CCCn1cc(C(=O)c2ccc(C)c3ccccc23)c2ccccc21
4. CCCCCn1c(C)c(C(=O)c2c(OC)ccc3ccccc23)c2ccccc21
5. CCCCCCC(C)(C)c1cc(O)c2c(c1)oc(=O)c1ccc(O)cc12
6. CCCCCCc1cc(O)c2c(c1)OC(C)(C)C1=C2CCN(C)C1
7. CCCCCCC(C)(C)c1cc(OC)c(C2(O)CCOCC2)c(OC)c1

Found:
1: > 50 nM; 2: > 50 nM; 3: 1050 nM; 4: 1380 nM; 5: 400 nM; 6: > 50 nM; 7: > 10000 nM

Batch request: Ki per item, same order as input.
1. CCCC(C)(C)c1ccc2c(c1)OC(C)(C)[C@@H]1CC=C(C)C[C@@H]21
2. CCOc1ccc(N(CC(=O)N[C@@H](C)CC)S(=O)(=O)c2ccc(Br)cc2)cc1

Found:
0.797 nM
> 50 nM

Give one value of Ki per listed compound.
1. CCCn1c(C)c(C(=O)c2cccc3cc(OC)ccc23)c2ccccc21
2. Cc1cccc(-c2nnc(SCC(=O)NC3CCCCC3)n2Cc2ccccc2)c1

Found:
1: > 10000 nM; 2: > 50 nM

----------
Field: Ratio Ki. Provide a value for each of the compounds that follow.
Species: Homo sapiens
Assay: Selectivity ratio of Ki for human CB1 receptor to Ki for human CB2 receptor

See these solved cases before continuing.
CCCCCN(CCCCC)C(=O)c1ccccc1C(=O)Nc1ccc(Br)cc1 = > 2
CCOc1ccc(N(CC(=O)N[C@@H](C)CC)S(=O)(=O)c2ccc(Br)cc2)cc1 = > 2
Cc1cccc(-c2nnc(SCC(=O)NC3CCCCC3)n2Cc2ccccc2)c1 = > 2
COc1ccc(OC)c(N(CC(=O)NCc2ccncc2)S(=O)(=O)c2ccc(C)cc2)c1 = > 37
CCCCSc1nc2c(c(=O)n1CCc1ccccc1)C1(CCCC1)Cc1ccccc1-2 = > 2

Hi team, please reply with Ratio Ki for each item in this list.
1. CCCCCC(C)(C)c1cc(OC)c2c(c1)OC(C)(C)[C@@H]1CCC(C)=C[C@@H]21
2. CCc1ccccc1NC(=O)CSc1nnc(-c2ccccc2OC)n1-c1ccccc1
3. CC1CCN(C(=O)c2ccc3c(c2)c2c(n3S(C)(=O)=O)CN(C3CCCC3)C2)CC1
4. COc1ccc2c(c1)c(CN1CCOCC1)c(C)n2C(=O)c1cccc(Cl)c1Cl
5. CCCCCCc1cc(O)c2c(c1)OC(C)(C)C1=C2CCN(C)C1

Found:
174
> 23
35
153
> 27

// each compound listed below needs its Ratio Ki
1. CCCCCCC(C)(C)c1cc(OC)c([C@@]2(O)CCC[C@@H](C)C2)c(OC)c1
2. CCS(=O)(=O)n1c2c(c3cc(C(=O)N4CCC(OC)CC4)ccc31)CN(C1CCCC1)C2
3. CCCn1c(C)c(C(=O)c2cccc3cc(OC)ccc23)c2ccccc21
4. CCCCCCC(C)(C)c1cc(OC)c(C2(O)CCOCC2)c(OC)c1

Found:
[220, 77, "> 333", "> 29"]
